- STUDY TARGET: Thyroid hormone receptor beta (Homo sapiens)
- METHOD: Agonist activity at human thyroid hormone receptor beta-1 expressed in COS1 cells by transactivation assay after 40 hrs
- Type: functional, cell-based
- STATED CONDITIONS: COS-1
Active and inactive are the calls of the source. No cut-off for these calls is given here.
Choose one outcome from this list and give only that: 1 (yes) (active), 0 (no) (inactive)

[
  {
    "COMPOUND": "Cc1cc(CC2SC(=O)NC2=O)cc(C)c1N(C)c1ccc(O)c(C(C)C)c1 (configuration not stated)",
    "LABEL CLASS": "1 (yes)"
  },
  {
    "COMPOUND": "Cc1cc(CC2SC(=O)NC2=O)cc(C)c1N(CC1CCCCC1)c1ccc(O)c(C(C)C)c1 (configuration not stated)",
    "LABEL CLASS": "0 (no)"
  },
  {
    "COMPOUND": "Cc1cc(CC2SC(=O)NC2=O)cc(C)c1N(Cc1ccccc1)c1ccc(O)c(C(C)C)c1 (configuration not stated)",
    "LABEL CLASS": "0 (no)"
  },
  {
    "COMPOUND": "Cc1cc(CC2SC(=O)NC2=O)cc(C)c1N(CC(C)C)c1ccc(O)c(C(C)C)c1 (configuration not stated)",
    "LABEL CLASS": "0 (no)"
  },
  {
    "COMPOUND": "CCCCCCN(c1ccc(O)c(C(C)C)c1)c1c(C)cc(CC2SC(=O)NC2=O)cc1C (configuration not stated)",
    "LABEL CLASS": "0 (no)"
  }
]

Q) Hello, I am checking results. What call was entered for CC(C)=CCN(c1ccc(O)c(C(C)C)c1)c1c(C)cc(CC2SC(=O)NC2=O)cc1C (configuration not stated) ?
A) 0 (no)

Q) Can you check Cc1cc(CC2SC(=O)NC2=O)cc(C)c1N(CC1CC1)c1ccc(O)c(C(C)C)c1 (configuration not stated) next?
A) 0 (no)
